Where do these numbers come from? They come from PubChem BioAssay AID1963862.

# Tested on: KRAS patient-derived spheroids with HUVEC/MSC, viability;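 further: spheroids exposed to agents for seven days before readout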
# METHOD_NOTES: Anticancer human tumor 941728-121-R-J1-PDC patient-derived lung adenocarcinoma cell line growth inhibition [KRAS2]
# ASSAY_CONDITIONS: second compound 1 µM; first compound 10 µM; active compounds read low
Below, each entry is listed alongside its reported viability, T/C.
Answer format: numeric, % implied, no suffix.

O=C(c1cc(Cc2n[nH]c(=O)c3ccccc23)ccc1F)N1CCN(C(=O)C2CC2)CC1 + CNCc1ccccc1-c1csc(C(C)Nc2nc(C)nc3cc(OC)c(OC)cc23)c1 :: 58.5
Cn1nccc1Nc1nccc(-c2cc3c(s2)C(C)(C)N(CCN2CCOCC2)C3=O)n1 + CC1OCC2(CCN(c3cnc(Sc4ccnc(N)c4Cl)c(N)n3)CC2)C1N :: 18.9
COC(=O)c1ccc2c(C(=Nc3ccc(N(C)C(=O)CN4CCN(C)CC4)cc3)c3ccccc3)c(O)[nH]c2c1 + COc1cc2nc(C)nc(NC(C)c3cc(N)cc(C(F)(F)F)c3)c2cc1OC1CCOC1 :: 42.2
CC1(C)CCC(CN2CCN(c3ccc(C(=O)NS(=O)(=O)c4ccc(NCC5CCOCC5)c([N+](=O)[O-])c4)c(Oc4cnc5[nH]ccc5c4)c3)CC2)=C(c2ccc(Cl)cc2)C1 + CC1OCC2(CCN(c3cnc(Sc4ccnc(N)c4Cl)c(N)n3)CC2)C1N :: 2.94

Task: Bench note: what viability, T/C did CC(C)NCC(C(=O)N1CCN(c2ncnc3c2C(C)CC3O)CC1)c1ccc(Cl)cc1 (stereo not given) + C=CC(=O)N1CCN(c2nc(=O)n(-c3c(C)ccnc3C(C)C)c3nc(-c4c(O)cccc4F)c(F)cc23)C(C)C1 show?
Result: 5.09
